Data provenance: PubChem BioAssay AID1159580

normalized growth by entry:
Measurement Description: chemical genetic growth profiling, strain panel (AID 1159580);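 note: tested at 20 µM; growth read once vehicle control cultures reached saturation at 30 °C; 1 = growth at the plate median or of vehicle wells; lower values mean less growth of the strain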
Condition Notes: S. cerevisiae deletion strains, growth OD, locus YOR290C, strain snf2, hits give low values
In all, about 5,500 compounds went through this assay and about 2,000 (36%) were called active. Roughly 18% stayed inconclusive and do not appear here. This is one part of the list.
Just the number, please, no unit after it.

Recorded normalized growth, per entry:
Compound	Quantitative Readout
NC(=O)N1c2ccccc2C=Cc2ccccc21	1.01
CC(=O)[C@@]1(O)CCC2C3CCC4=CC(=O)CC[C@]4(C)C3CC[C@@]21C (stereo not given in full)	0.953
NCCNCCNCCN	1
CCOc1ccc(C(=O)c2cc(O)c(OC)c(OC)c2O)cc1	0.979
COc1ccc(C(=O)c2ccccc2)c(O)c1O	0.929
COc1ccc2c(c1)[C@]13CCCC[C@H]1[C@H](C2)N(C)CC3	1.01

// query Form field: reported normalized growth of `Cc1c(NC(=O)c2cccnc2)c(=O)n(-c2ccccc2)n1C`
// result 0.98

// query Form field: reported normalized growth of `COc1cc(-c2oc3cc(O)ccc3c(=O)c2O)ccc1O`
// result 0.888

// query Form field: reported normalized growth of `NC(N)=NC(N)=Nc1ccccc1`
// result 0.987

// query Form field: reported normalized growth of CC[C@H]1CN2CCc3cc(OC)c(OC)cc3C2C[C@@H]1CC1NCCc2cc(OC)c(OC)cc21 (stereo not given in full)
// result 0.995

// query Form field: reported normalized growth of `CCOc1ccc(NC(C)=O)cc1`
// result 1.01

// query Form field: reported normalized growth of `CCOc1ccc(C(=O)c2ccc(O)c(O)c2O)cc1`
// result 0.67

// query Form field: reported normalized growth of `COc1cc(-c2coc3cc(O[C@@H]4O[C@H](CO)[C@@H](O)[C@H](O)[C@H]4O)c(OC)c(O)c3c2=O)cc(O)c1OC`
// result 1

// query Form field: reported normalized growth of `COc1ccc(-c2oc3ccccc3c(=O)c2O)cc1OC`
// result 0.607

// query Form field: reported normalized growth of `O=C(NC1CCCCC1)NC1CCCCC1`
// result 0.953

###

normalized growth by entry:
Measurement Description: chemical genetic growth profiling, strain panel (AID 1159580)
Condition Notes: S. cerevisiae deletion strains, growth OD, locus YLR371W, strain rom2, hits give low values
The whole screen tested about 5,500 compounds, of which about 2,000 (36%) were called active. Inconclusive results (about 18%) are left out. Some of the results follow.

Molecule	Result
CC1(C)C(=O)[C@@H]2C[C@@]3(O)C4=CC(=O)O[C@@H](c5ccoc5)[C@]4(C)CCC3[C@@](C)(C2=O)[C@H]1CC(=O)O (stereo partly drawn)	1.01 (inactive)

// query Form field: reported normalized growth of `CC(=O)Oc1cccc(C(=O)O)c1OC(C)=O`
// result 1 (inactive)

// query Form field: reported normalized growth of CC(=O)OCC(=O)[C@@]1(O)CCC2C3CC[C@@H]4C[C@H](OC(C)=O)CC[C@]4(C)C3C(=O)C[C@@]21C (stereo partly drawn)
// result 1 (inactive)

// query Form field: reported normalized growth of `O=c1oc2c(O)c(O)cc3c(=O)oc4c(O)c(O)cc1c4c23`
// result 0.605 (active)

// query Form field: reported normalized growth of CC(=O)CC1CCCCN1 (stereo not drawn)
// result 0.994 (inactive)

// query Form field: reported normalized growth of `O=C(O)[C@H](O)[C@@](O)(Cc1ccc(O)cc1)C(=O)O`
// result 1 (inactive)

// query Form field: reported normalized growth of `CC(=O)[O][Hg][c]1ccccc1`
// result 0.0637 (active)

// query Form field: reported normalized growth of CC(NCCC(c1ccccc1)c1ccccc1)c1ccccc1 (stereo not drawn)
// result 0.97 (inactive)

###

Measurement Description: chemical genetic growth profiling, strain panel (AID 1159580)
Condition Notes: S. cerevisiae deletion strains, growth OD, locus YOL006C, strain TOP1
Screen size: about 5,500 compounds; about 2,000 (36%) were called active. Not shown: some 18% with an inconclusive outcome. Rule as the data show it: active = normalized growth mostly below about 0.91 (no sharp cut-off); inconclusive = no clear call, values can overlap the other calls; inactive = mostly above about 0.92. This is one part of the list.
Use one of these outcomes when replying: t (active), f (inactive)

Molecule	Category Label
COc1cc(/C=C/C=O)cc(OC)c1OC	f
COc1cc2cc3c4cc(OC)c(OC)cc4cc[n+]3c(C)c2cc1OC	f
NC(=O)N1c2ccccc2C=Cc2ccccc21	f
CCOc1ccc(C(=O)c2ccc(O)c(O)c2O)cc1	f

Now examine the next entry.
// query Short answer needed: outcome of this test for `CC1(C)S[C@@H]2[C@H](NC(=O)Cc3ccccc3)C(=O)N2[C@H]1C(=O)O` ?
// result f

###

Measurement Description: chemical genetic growth profiling, strain panel (AID 1159580)
Condition Notes: S. cerevisiae deletion strains, growth OD, locus YLR027C, strain aat2, hits give low values
Out of some 5,500 compounds screened, about 2,000 (36%) were called active. Not shown: some 18% with an inconclusive outcome. Some of the results follow.
normalized growth by entry:
Just the number, please, no unit after it.

Recorded normalized growth, per entry:
Molecule	normalized growth
COc1ccc(-c2oc3ccccc3c(=O)c2O)cc1OC	0.673
CC(=O)OCC1=C(C(=O)O)N2C(=O)[C@@H](NC(=O)CCCC(N)C(=O)O)C2SC1 (some centres undefined)	0.998
COc1cc2c(cc1O)CCNC2C (centres undefined)	0.98
Cc1cc(=O)n(-c2ccccc2)n1C	1

// query Form field: reported normalized growth of `O=c1c(O)c(-c2ccc(O)c(O)c2)oc2cc(O)ccc12`
// result 0.968

// query Form field: reported normalized growth of `COc1cc(NS(=O)(=O)c2ccc(N)cc2)ncn1`
// result 0.988

###

Measurement Description: chemical genetic growth profiling, strain panel (AID 1159580)
Condition Notes: S. cerevisiae deletion strains, growth OD, locus YOR316C, strain cot1, hits give low values
About 2,000 (36%) of roughly 5,500 compounds were called active. About 18% were inconclusive and are not listed. Some of the results follow.
Observation Type: normalized growth
Just the number, please, no unit after it.

Smiles Structure	normalized growth
Cc1c(NC(=O)c2cccnc2)c(=O)n(-c2ccccc2)n1C	0.986
CCCCc1nc(Cl)c(CO)n1Cc1ccc(-c2ccccc2-c2nn[nH]n2)cc1	0.999

// query Form field: reported normalized growth of `CCCc1nc2c(C)cc(-c3nc4ccccc4n3C)cc2n1Cc1ccc(-c2ccccc2C(=O)O)cc1`
// result 0.999

###

Measurement Description: chemical genetic growth profiling, strain panel (AID 1159580);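 note: tested at 20 µM; growth read once vehicle control cultures reached saturation at 30 °C; 1 = growth at the plate median or of vehicle wells; lower values mean less growth of the strain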
Condition Notes: S. cerevisiae deletion strains, growth OD, locus YNL248C, strain rpa49, hits give low values
About 2,000 (36%) of roughly 5,500 compounds were called active. Inconclusive results (about 18%) are left out. The list shows a part of the results.
Observation Type: normalized growth
Just the number, please, no unit after it.

Recorded normalized growth, per entry:
Compound	normalized growth
CC1=C(O)C(=O)C=C2C1=CC=C1[C@@]2(C)CC[C@@]2(C)[C@@H]3C[C@](C)(C(=O)O)CC[C@]3(C)CC[C@]12C	0.708
C[C@]12CCC(=O)C=C1CCC1C2C(=O)C[C@@]2(C)C1CC[C@]2(O)C(=O)CO (some centres undefined)	1
C#CC1(O)CCC2C3CCC4=CC(=O)CCC4(C)C3CCC21C (centres undefined)	0.987

Query compound follows.
// query Form field: reported normalized growth of CC(=O)Oc1cc2c(c(C)c1OC(C)=O)CC1OC13C2(C)CCC1(C)C2CC(C)(C(=O)O)CCC2(C)CCC13C (centres undefined)
// result 1.06

###

normalized growth by entry:
Measurement Description: chemical genetic growth profiling, strain panel (AID 1159580);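 note: tested at 20 µM; growth read once vehicle control cultures reached saturation at 30 °C; 1 = growth at the plate median or of vehicle wells; lower values mean less growth of the strain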
Condition Notes: S. cerevisiae deletion strains, growth OD, locus YNL175C, strain NOP13, hits give low values
Screen size: about 5,500 compounds; about 2,000 (36%) were called active. Another 18% or so got no clear call; they are omitted. The list shows a part of the results.
Just the number, please, no unit after it.

Molecule	normalized growth
CC(C)[C@@H]1NC(=O)[C@H](CCCCN)NC(=O)[C@@H](Cc2c[nH]c3ccccc23)NC(=O)[C@H](Cc2ccc(O)cc2)NC(=O)[C@H](C)N(C)C(=O)[C@H](Cc2ccccc2)NC1=O	0.988

// query Form field: reported normalized growth of `CCCCOC(=O)NS(=O)(=O)c1sc(CC(C)C)cc1-c1ccc(Cn2c(CC)nc3c(C)cc(C)nc32)cc1`
// result 1

// query Form field: reported normalized growth of CCc1cccc2c3c([nH]c12)C(CC)(CC(=O)O)OCC3 (centres undefined)
// result 0.994

// query Form field: reported normalized growth of `NC(=O)N1c2ccccc2C=Cc2ccccc21`
// result 1.05

###

Measurement Description: chemical genetic growth profiling, strain panel (AID 1159580);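 note: tested at 20 µM; growth read once vehicle control cultures reached saturation at 30 °C; 1 = growth at the plate median or of vehicle wells; lower values mean less growth of the strain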
Condition Notes: S. cerevisiae deletion strains, growth OD, locus YMR307W, strain GAS1, hits give low values
The whole screen tested about 5,500 compounds, of which about 2,000 (36%) were called active. Inconclusive results (about 18%) are left out. The list shows a part of the results.
Observation Type: normalized growth
Just the number, please, no unit after it.

Molecule	Quantitative Readout
COc1c2ccoc2cc2oc(C)cc(=O)c12	0.961
O=C(Nc1cccnc1)c1cccc(Cl)c1Cl	1.01
O=C(O)[C@H](O)[C@@](O)(Cc1ccc(O)cc1)C(=O)O	1.04

// query Form field: reported normalized growth of `CN[C@@H]1[C@@H](O[C@H]2O[C@H](CO)[C@@H](N)[C@H](O)[C@H]2O)O[C@H]2C[C@@H](N)[C@H](O[C@H]3[C@H](O)[C@@H](O)[C@H](N)C[C@@H]3N)O[C@@H]2[C@@H]1O`
// result 1.03

// query Form field: reported normalized growth of OC(CSc1ccccc1)CN1CCN(c2ccc(C(F)(F)F)cn2)CC1 (stereo unspecified)
// result 0.698

// query Form field: reported normalized growth of `O=c1c(O)c(-c2ccc(O)c(O)c2)oc2cc(O)ccc12`
// result 0.675

// query Form field: reported normalized growth of COc1c2c(cc3c1OCO3)C13C=C[C@H](OC)CC1N(C2)CC3O (stereo partly specified)
// result 1.23

// query Form field: reported normalized growth of `CCc1c(C(=O)OC)ncc2[nH]c3cc(OC)c(OC)cc3c12`
// result 1.01

// query Form field: reported normalized growth of CC(=O)OCC1=C(C(=O)O)N2C(=O)[C@@H](NC(=O)CCCC(N)C(=O)O)C2SC1 (stereo partly specified)
// result 0.987

// query Form field: reported normalized growth of `COc1cc([N+](=O)[O-])ccc1N1CCCC1`
// result 0.445

// query Form field: reported normalized growth of `COc1cc(-c2oc3cc(O)ccc3c(=O)c2O)cc(OC)c1OC`
// result 0.995
